Every entry's value here was drawn from patent US20220401383A1.

Test: Clinical pharmacokinetics (literature data)
Details: human, in vivo, oral, 4500 mg
READOUT_NAME: bioavailability (%)

>>> reading("C=C(C)[C@@H]1CCC(C)=C[C@H]1c1c(O)cc(CCCCC)cc1O")
29

----------
Biological target: CYP2D6 (Homo sapiens)
Sequence (P10635 whole entry): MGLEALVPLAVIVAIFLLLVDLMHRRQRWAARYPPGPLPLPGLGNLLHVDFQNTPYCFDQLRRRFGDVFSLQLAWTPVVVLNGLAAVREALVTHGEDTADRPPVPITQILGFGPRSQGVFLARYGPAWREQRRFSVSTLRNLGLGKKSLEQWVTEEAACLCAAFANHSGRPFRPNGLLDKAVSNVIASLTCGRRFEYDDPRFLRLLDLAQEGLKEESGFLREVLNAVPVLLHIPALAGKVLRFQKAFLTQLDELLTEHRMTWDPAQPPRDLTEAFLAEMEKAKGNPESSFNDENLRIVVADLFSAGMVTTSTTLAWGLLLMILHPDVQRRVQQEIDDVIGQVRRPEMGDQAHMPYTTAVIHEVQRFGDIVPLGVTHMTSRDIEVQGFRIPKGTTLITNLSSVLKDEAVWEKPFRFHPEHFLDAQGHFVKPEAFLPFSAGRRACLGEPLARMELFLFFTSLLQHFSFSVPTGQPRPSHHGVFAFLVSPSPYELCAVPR
READOUT_NAME: IC50 (nM)

>>> reading("CC(C)c1nc(CN(C)C(=O)N[C@@H](CCN2CCOCC2)C(=O)N[C@H](CC[C@H](Cc2ccccc2)NC(=O)OCc2cncs2)Cc2ccccc2)cs1 [Cobicistat]")
479

----------
Assay: Clinical pharmacokinetics (literature data)
Settings: human, in vivo, oral, 1500 mg
READOUT_NAME: bioavailability (%)

>>> reading("C=C(C)[C@@H]1CCC(C)=C[C@H]1c1c(O)cc(CCCCC)cc1O")
39
